target: Histone deacetylase HD2 (Zea mays); test: Concentration required for inhibition of histone deacetylase HD2 in vitro.
Non-standard residues stand in square brackets, D forms with d. Residues, ends and D or L forms follow the SMILES beside them. ξ: configuration not given here. Aoe(9ξ) = N[C@@H](CCCCCC(=O)C1CO1)C(=O)O; dPip = O=C(O)[C@H]1CCCCN1
Overview of recorded log10 IC50 for various compounds
Note the log scale: values are log10 of IC50 expressed in nM.

# compound, log10 IC50
records = [
    ("Cn1cc(C(=O)c2ccc3ccccc3c2)cc1/C=C/C(=O)NO", 2.06),
    ("Cn1cc(C(=O)CCCCCCc2ccccc2)cc1/C=C/C(=O)NO", 2.42),
    ("C/C(=C\\c1cc(C(=O)/C=C/c2ccccc2)cn1C)C(=O)NO", 3.11),
    ("Cn1cc(C(=O)/C=C/c2ccccc2)cc1/C=C/C(=O)NO", 3.00),
    ("CCCC(CCC)C(=O)O [VALPROATE SODIUM]", 5.11),
    ("Cn1cc(C(=O)CCCc2ccccc2)cc1/C=C/C(=O)NO", 2.11),
    ("O=C(CCCCC[C@@H]1NC(=O)[C@H]2CCCCN2C(=O)[C@H](Cc2ccccc2)NC(=O)[C@H](Cc2ccccc2)NC1=O)C1CO1 (stereo not given in full) [TRAPOXIN A] (cyclo(FF[dPip][Aoe(9ξ)]))", 1.00),
    ("Cn1cc(C(=O)c2ccccc2)cc1CC(=O)NO", 4.54),
    ("Cn1cc(C(=O)CCCCc2ccccc2)cc1/C=C/C(=O)NO", 2.04),
]

Next:
Looking for the measured log10 IC50 of `Cn1c(CC(=O)NO)ccc1C(=O)Cc1ccccc1` , can you help?
4.23

---

molecular target: Histone deacetylase HD2 (Zea mays); assay: Concentration required for inhibition of histone deacetylase HD2 in vitro.
pIC50: −log10 of the molar value.
Kind request: treat 6 as inclusive, so pIC50 at 6 or higher is T, anything lower is F.

Solved entries (count: 3):
# test.smiles, group
measured = [
    ("Cn1cc(C(=O)Cc2ccccc2)cc1C=C(C(=O)NO)C(=O)NO", "T"),
    ("Cn1cc(C(=O)c2ccccc2)cc1C=C(C(=O)NO)C(=O)NO", "F"),
    ("C/C(=C\\c1cc(C(=O)c2ccccc2)cn1C)C(=O)NO", "F"),
]

For this compound, is measured pIC50 6 or higher? `Cn1cc(C(=O)CCc2ccccc2)cc1/C=C/C(=O)NO`
T

For this compound, is measured pIC50 6 or higher? `Cn1cc(C(=O)Cc2ccccc2)cc1CC(=O)NO`
F

---

target: Histone deacetylase HD2 (Zea mays); experiment: Inhibitory concentration against histone deacetylase HD2 enzyme.
Overview of recorded pIC50 for various compounds
Please report pIC50 as the negative decimal logarithm of the molar concentration, giving only the number.

Sample records with pIC50:
# compound, pIC50
data = [
    ("Cn1c(CC(=O)NO)ccc1C(=O)Cc1ccccc1", 4.77),
    ("Cn1cc(C(=O)c2ccccc2)cc1/C=C/C=C/C(=O)NO", 6.11),
    ("Cn1cc(C(=O)C2CC2c2ccccc2)cc1/C=C/C(=O)NO (stereo not given)", 6.51),
]

Looking for the measured pIC50 of `Cn1c(CC(=O)NO)ccc1C(=O)c1ccccc1` , can you help?
4.69

Looking for the measured pIC50 of `C/C(=C\c1cc(C(=O)/C=C/c2ccccc2)cn1C)C(=O)NO` , can you help?
5.89

Looking for the measured pIC50 of `Cn1cc(C(=O)Cc2ccccc2)cc1C=C(C(=O)NO)C(=O)NO` , can you help?
6.70

Looking for the measured pIC50 of `C/C(=C\c1cc(C(=O)Cc2ccccc2)cn1C)C(=O)NO` , can you help?
5.85

Looking for the measured pIC50 of `Cn1cc(C(=O)c2cccc3ccccc23)cc1/C=C/C(=O)NO` , can you help?
6.84

Looking for the measured pIC50 of `Cn1cc(C(=O)/C=C/c2ccccc2)cc1/C=C/C(=O)NO` , can you help?
6.00

Looking for the measured pIC50 of `Cn1cc(C(=O)c2ccccc2)cc1C=C(C(=O)NO)C(=O)NO` , can you help?
4.18

Looking for the measured pIC50 of `Cn1cc(C(=O)CCCCCCc2ccccc2)cc1/C=C/C(=O)NO` , can you help?
6.58

Looking for the measured pIC50 of `Cn1cc(C(=O)CCCCc2ccccc2)cc1/C=C/C(=O)NO` , can you help?
6.96

Looking for the measured pIC50 of `Cn1cc(C(=O)CCCCCCCc2ccccc2)cc1/C=C/C(=O)NO` , can you help?
6.68

Looking for the measured pIC50 of `C/C(=C\c1cc(C(=O)c2ccccc2)cn1C)C(=O)NO` , can you help?
5.57

Looking for the measured pIC50 of `Cn1cc(C(=O)Cc2ccccc2)cc1CC(=O)NO` , can you help?
4.97

---

Molecular target: Histone deacetylase HD2 (Zea mays)
Sequence (Q94F81 whole entry): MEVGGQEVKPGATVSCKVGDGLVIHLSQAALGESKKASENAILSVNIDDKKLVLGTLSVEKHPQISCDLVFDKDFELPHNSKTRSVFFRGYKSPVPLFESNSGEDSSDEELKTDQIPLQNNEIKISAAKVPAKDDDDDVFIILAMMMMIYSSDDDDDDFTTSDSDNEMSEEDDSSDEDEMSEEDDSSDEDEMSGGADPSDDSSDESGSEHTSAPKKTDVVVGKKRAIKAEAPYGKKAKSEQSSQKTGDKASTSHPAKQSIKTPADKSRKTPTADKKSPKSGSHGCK
Assay: Concentration required for inhibition of histone deacetylase HD2 in vitro.
Overview of recorded log10 IC50 for various molecules
Note the log scale: values are log10 of IC50 expressed in nM.

Sample records with log10 IC50:
# molecule, log10 IC50
measured = [
    ("Cn1cc(C(=O)C2CC2c2ccccc2)cc1/C=C/C(=O)NO (stereo unspecified)", 2.49),
    ("Cn1c(CC(=O)NO)ccc1C(=O)c1ccccc1", 4.31),
    ("Cn1cc(C(=O)CCCCCc2ccccc2)cc1/C=C/C(=O)NO", 1.85),
    ("Cn1cc(C(=O)C2(c3ccccc3)CC2)cc1/C=C/C(=O)NO", 2.00),
]

Hi! What's the reported log10 IC50 for `Cn1cc(C(=O)/C=C/c2ccccc2)cc1/C=C/C=C/C(=O)NO` on Histone deacetylase HD2 (Zea mays)?
4.00

Hi! What's the reported log10 IC50 for `Cn1cc(C(=O)c2cccc3ccccc23)cc1/C=C/C(=O)NO` on Histone deacetylase HD2 (Zea mays)?
2.16

Hi! What's the reported log10 IC50 for `Cn1cc(C(=O)CCCCCCCc2ccccc2)cc1/C=C/C(=O)NO` on Histone deacetylase HD2 (Zea mays)?
2.32

Hi! What's the reported log10 IC50 for `Cn1cc(C(=O)Cc2ccccc2)cc1/C=C/C(=O)NO` on Histone deacetylase HD2 (Zea mays)?
2.00

Hi! What's the reported log10 IC50 for `C/C(=C\c1cc(C(=O)Cc2ccccc2)cn1C)C(=O)NO` on Histone deacetylase HD2 (Zea mays)?
3.15

Hi! What's the reported log10 IC50 for `Cn1cc(C(=O)Cc2ccccc2)cc1CCC(=O)NO` on Histone deacetylase HD2 (Zea mays)?
3.08

Hi! What's the reported log10 IC50 for `Cn1cc(C(=O)Cc2ccccc2)cc1/C=C/C=C/C(=O)NO` on Histone deacetylase HD2 (Zea mays)?
3.17

---

Target: Histone deacetylase HD2 (Zea mays)
Sequence (Q94F81 whole entry): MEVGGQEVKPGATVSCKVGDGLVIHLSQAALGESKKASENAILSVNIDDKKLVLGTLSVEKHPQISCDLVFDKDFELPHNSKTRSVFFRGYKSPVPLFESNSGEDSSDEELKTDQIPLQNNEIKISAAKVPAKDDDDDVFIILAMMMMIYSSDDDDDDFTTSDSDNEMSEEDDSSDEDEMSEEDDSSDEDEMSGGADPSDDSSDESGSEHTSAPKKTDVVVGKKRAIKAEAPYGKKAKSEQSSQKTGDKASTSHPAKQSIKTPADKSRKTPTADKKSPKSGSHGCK
Test: Inhibitory concentration against histone deacetylase HD2 enzyme.
Overview of recorded IC50 for various compounds
Return type: number; implicit unit nM.

Sample records with IC50:
# test.smiles, measured.target, measured.metric, numeric.readout
measured = [
    ("Cn1cc(C(=O)CCc2ccccc2)cc1/C=C/C(=O)NO", "Histone deacetylase HD2 (Zea mays)", "IC50", 42.7),
    ("Cn1cc(C(=O)c2ccccc2)cc1CC(=O)NO", "Histone deacetylase HD2 (Zea mays)", "IC50", 34700),
    ("Cn1cc(C(=O)Cc2ccccc2)cc1/C=C/C=C/C(=O)NO", "Histone deacetylase HD2 (Zea mays)", "IC50", 1480),
    ("Cn1cc(C(=O)Cc2ccccc2)cc1CCC(=O)NO", "Histone deacetylase HD2 (Zea mays)", "IC50", 1200),
]

Hi! What's the reported IC50 for `Cn1cc(C(=O)C2(c3ccccc3)CC2)cc1/C=C/C(=O)NO` on Histone deacetylase HD2 (Zea mays)?
100

Hi! What's the reported IC50 for `Cn1cc(C(=O)CCCCCc2ccccc2)cc1/C=C/C(=O)NO` on Histone deacetylase HD2 (Zea mays)?
70.8

Hi! What's the reported IC50 for `Cn1cc(C(=O)Cc2ccccc2)cc1/C=C/C(=O)NO` on Histone deacetylase HD2 (Zea mays)?
100

Hi! What's the reported IC50 for `Cn1cc(C(=O)/C=C/c2ccccc2)cc1/C=C/C=C/C(=O)NO` on Histone deacetylase HD2 (Zea mays)?
10000

Hi! What's the reported IC50 for `Cn1cc(C(=O)CCCc2ccccc2)cc1/C=C/C(=O)NO` on Histone deacetylase HD2 (Zea mays)?
129

Hi! What's the reported IC50 for `Cn1cc(C(=O)c2ccc3ccccc3c2)cc1/C=C/C(=O)NO` on Histone deacetylase HD2 (Zea mays)?
115
